Numbers sourced from patent US7732451B2.

# Tested System: hMC3-R (Homo sapiens, UniProt P41968)
# Construct: expressed in transfected cells
# Sequence (P41968 whole entry): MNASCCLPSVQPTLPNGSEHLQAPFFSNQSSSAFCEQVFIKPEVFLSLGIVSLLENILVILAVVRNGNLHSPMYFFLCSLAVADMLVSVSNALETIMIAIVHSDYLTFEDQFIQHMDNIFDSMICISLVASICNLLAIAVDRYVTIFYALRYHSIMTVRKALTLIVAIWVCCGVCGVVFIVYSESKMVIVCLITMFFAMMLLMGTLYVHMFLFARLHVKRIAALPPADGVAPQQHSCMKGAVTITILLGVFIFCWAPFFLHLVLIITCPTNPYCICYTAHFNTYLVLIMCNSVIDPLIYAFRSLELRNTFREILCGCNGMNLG
# Test Summary: competitive inhibition binding assay, 125I-NDP-α-MSH, membranes
# Run Conditions: 1 μM compound; average of triplicates; read-out: Inhibition at 1 μM MC3-R
# Method: A competitive inhibition binding assay was conducted using membranes prepared from hMC3-R, hMC4-R, hMC5-R, and B-16 mouse melanoma cells (containing MC1-R) using 0.4 nM ^125I-NDP-α-MSH (New England Nuclear, Boston, Mass., USA) in 50 mM HEPES buffer containing 1 mM MgCl2, 2 mM CaCl2, and 5 mM KCl, at pH 7.2. The assay tube also contained a chosen concentration of the test compound of this invention, for determining its efficacy in inhibiting the binding of ^125I-NDP-α-MSH to its receptor. […]
Please enter True where inhibition at 1 µM is greater than or equal to 50%, and False where it is lower.

Molecule	Class
NCCCC[C@H]1C(=O)N(CCc2ccc3ccccc3c2)CCN1C(=O)[C@@H](Cc1ccc(Cl)cc1Cl)NC(=O)[C@@H]1CC[C@H](c2ccccc2)N1 [Example 7]	False
Cc1ccc(C[C@@H](N)C(=O)N2C[C@@H](C)N(CCc3ccc4ccccc4c3)C[C@@H]2CCCNC(=N)N)c(C)c1 [Example 16]	True
C[C@@H]1CN(C(=O)[C@H](N)Cc2ccc(Cl)cc2)[C@@H](CCCNC(=N)N)CN1CCc1ccc2ccccc2c1 [Example 15]	True
C[C@H]1CN(CCc2ccc3ccccc3c2)C[C@H](CCCNC(=N)N)N1C(=O)[C@H](N)Cc1ccc(Cl)cc1Cl [Example 17 (S)-CH3]	False
N=C(N)NCCC[C@H]1CN(CCOc2ccc3ccccc3c2)CCN1C(=O)[C@@H](N)Cc1ccc(Cl)cc1Cl [Example 18]	False
Cc1cc(Cl)ccc1C[C@@H](N)C(=O)N1C[C@@H](C)N(CCc2ccc3ccccc3c2)C[C@@H]1CCCNC(=N)N [Example 14]	True

###

# Tested System: MC1-R (B-16 mouse melanoma cells) (Mus musculus, UniProt Q01727)
# Construct: B-16 mouse melanoma cells (containing MC1-R); endogenous in cells; host or cells: B-16 mouse melanoma cells
# Sequence (Q01727 whole entry): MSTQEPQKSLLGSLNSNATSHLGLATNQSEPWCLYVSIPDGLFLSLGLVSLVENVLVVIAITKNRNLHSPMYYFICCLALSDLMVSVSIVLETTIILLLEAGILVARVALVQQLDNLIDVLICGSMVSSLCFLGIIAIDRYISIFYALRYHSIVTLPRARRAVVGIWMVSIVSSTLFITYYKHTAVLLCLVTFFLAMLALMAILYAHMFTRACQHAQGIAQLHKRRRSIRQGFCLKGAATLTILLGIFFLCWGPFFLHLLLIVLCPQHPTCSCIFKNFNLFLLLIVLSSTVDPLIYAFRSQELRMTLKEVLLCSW
# Test Summary: competitive inhibition binding assay, 125I-NDP-α-MSH, membranes
# Run Conditions: bound printed in μM in a Ki (nM) table; read-out: Ki MC1-R

Molecule	Ki
NCCCC[C@H]1C(=O)N(CCc2ccc3ccccc3c2)CCN1C(=O)[C@@H](Cc1ccc(Cl)cc1Cl)NC(=O)/C=C/c1ccccc1 [Example 8]	> 1 µM

###

# Tested System: hMC5-R (Homo sapiens, UniProt P33032)
# Construct: expressed in transfected cells
# Sequence (P33032 whole entry): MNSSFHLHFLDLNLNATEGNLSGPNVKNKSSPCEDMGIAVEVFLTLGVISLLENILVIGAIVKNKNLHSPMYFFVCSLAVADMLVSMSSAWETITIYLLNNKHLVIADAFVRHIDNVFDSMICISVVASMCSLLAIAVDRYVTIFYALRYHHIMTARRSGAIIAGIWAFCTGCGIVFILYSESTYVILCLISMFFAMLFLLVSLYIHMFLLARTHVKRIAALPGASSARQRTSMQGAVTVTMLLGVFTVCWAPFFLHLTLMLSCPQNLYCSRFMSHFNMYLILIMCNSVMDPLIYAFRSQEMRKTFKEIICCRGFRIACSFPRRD
# Test Summary: competitive inhibition binding assay, 125I-NDP-α-MSH, membranes
# Run Conditions: read-out: Ki (nM) MC5-R
Here the recorded Ki is given for each entry.

Molecule	Ki / nM
C[C@H]1CN(CCc2ccc3ccccc3c2)C[C@H](CCCNC(=N)N)N1C(=O)[C@H](N)Cc1ccc(Cl)cc1Cl [Example 17 (S)-CH3]	602
NCCCC[C@H]1C(=O)N(CCc2ccc3ccccc3c2)CCN1C(=O)[C@@H](Cc1ccc(Cl)cc1Cl)NC(=O)/C=C/c1ccccc1 [Example 8]	410
Cc1ccc(C[C@@H](N)C(=O)N2C[C@@H](C)N(CCc3ccc4ccccc4c3)C[C@@H]2CCCNC(=N)N)c(Cl)c1 [Example 13]	527

###

# Tested System: MC1-R (B-16 mouse melanoma cells) (Mus musculus)
# Construct: B-16 mouse melanoma cells (containing MC1-R); endogenous in cells; host or cells: B-16 mouse melanoma cells
# Test Summary: cAMP assay for agonist/antagonist status
# Format: cell-based
# Run Conditions: antagonism = inhibition of α-MSH-induced cAMP
Reported Metric: agonist/antagonist status as to MC1-R

Compound	Reported Metric	Endpoint Result
NCCCC[C@H]1C(=O)N(CCc2ccc3ccccc3c2)CCN1C(=O)[C@@H](Cc1ccc(Cl)cc1Cl)NC(=O)c1ccc(Oc2ccccc2)cc1	agonist/antagonist status as to MC1-R	antagonist
C[C@@H]1CN(C(=O)[C@H](N)Cc2ccc(Cl)cc2)[C@@H](CCCNC(=N)N)CN1CCc1ccc2ccccc2c1	agonist/antagonist status as to MC1-R	agonist
NCCCC[C@H]1C(=O)N(CCc2ccc3ccccc3c2)CCN1C(=O)[C@@H](Cc1ccc(Cl)cc1Cl)NC(=O)/C=C/c1ccccc1	agonist/antagonist status as to MC1-R	antagonist
C[C@H]1CN(CCc2ccc3ccccc3c2)C[C@H](CCCNC(=N)N)N1C(=O)[C@H](N)Cc1ccc(Cl)cc1Cl [Example 17 (S)-CH3]	agonist/antagonist status as to MC1-R	agonist

###

# Tested System: hMC3-R (Homo sapiens)
# Construct: expressed in transfected cells
# Test Summary: competitive inhibition binding assay, 125I-NDP-α-MSH, membranes
# Run Conditions: read-out: Ki (nM) MC3-R
Reported Metric: Ki (nM)

Compound	Reported Metric	Measurement Unit	Endpoint Result
Cc1cc(Cl)ccc1C[C@@H](N)C(=O)N1C[C@@H](C)N(CCc2ccc3ccccc3c2)C[C@@H]1CCCNC(=N)N [Example 14]	Ki	nM	99
C[C@@H]1CN(C(=O)[C@H](N)Cc2ccc(Cl)cc2)[C@@H](CCCNC(=N)N)CN1CCc1ccc2ccccc2c1 [Example 15]	Ki	nM	160
C[C@H]1CN(CCc2ccc3ccccc3c2)C[C@H](CCCNC(=N)N)N1C(=O)[C@H](N)Cc1ccc(Cl)cc1Cl [Example 17 (S)-CH3]	Ki	nM	551
C[C@@H]1CN(C(=O)[C@H](N)Cc2ccc(Cl)cc2Cl)[C@@H](CCCNC(=N)N)CN1CCc1ccc2ccccc2c1 [Example 11]	Ki	nM	95

###

# Tested System: MC1-R (B-16 mouse melanoma cells) (Mus musculus, UniProt Q01727)
# Construct: B-16 mouse melanoma cells (containing MC1-R); endogenous in cells; host or cells: B-16 mouse melanoma cells
# Test Summary: competitive inhibition binding assay, 125I-NDP-α-MSH, membranes
# Run Conditions: read-out: Ki (nM) MC1-R

Molecule	Ki
C[C@@H]1CN(C(=O)[C@H](N)Cc2ccc(Cl)cc2Cl)[C@@H](CCCNC(=N)N)CN1CCc1ccc2ccccc2c1	1130 nM
C[C@H]1CN(CCc2ccc3ccccc3c2)C[C@H](CCCNC(=N)N)N1C(=O)[C@H](N)Cc1ccc(Cl)cc1Cl [Example 17 (S)-CH3]	3180 nM
Cc1ccc(C[C@@H](N)C(=O)N2C[C@@H](C)N(CCc3ccc4ccccc4c3)C[C@@H]2CCCNC(=N)N)c(C)c1	1220 nM
Cc1ccc(C[C@@H](N)C(=O)N2C[C@@H](C)N(CCc3ccc4ccccc4c3)C[C@@H]2CCCNC(=N)N)c(Cl)c1	907 nM
Cc1cc(Cl)ccc1C[C@@H](N)C(=O)N1C[C@@H](C)N(CCc2ccc3ccccc3c2)C[C@@H]1CCCNC(=N)N	1050 nM
C[C@@H]1CN(C(=O)[C@H](N)Cc2ccc(Cl)cc2)[C@@H](CCCNC(=N)N)CN1CCc1ccc2ccccc2c1	94 nM
NCCCC[C@H]1C(=O)N(CCc2ccc3ccccc3c2)CCN1C(=O)[C@@H](Cc1ccc(Cl)cc1Cl)NC(=O)c1ccc(Oc2ccccc2)cc1	915 nM

###

Here the recorded inhibition at 1 µM is given for each entry.
# Tested System: MC1-R (B-16 mouse melanoma cells) (Mus musculus, UniProt Q01727)
# Construct: B-16 mouse melanoma cells (containing MC1-R); endogenous in cells; host or cells: B-16 mouse melanoma cells
# Test Summary: competitive inhibition binding assay, 125I-NDP-α-MSH, membranes
# Run Conditions: 1 μM compound; average of triplicates; results less than 0% reported as 0%
Reported Metric: inhibition at 1 µM (%)

Molecule	Endpoint Result
Cc1ccc(C[C@@H](N)C(=O)N2C[C@@H](C)N(CCc3ccc4ccccc4c3)C[C@@H]2CCCNC(=N)N)c(C)c1	22
C[C@@H]1CN(C(=O)[C@H](N)Cc2ccc(Cl)cc2Cl)[C@@H](CCCNC(=N)N)CN1CCc1ccc2ccccc2c1	44
NCCCC[C@H]1C(=O)N(CCc2ccc3ccccc3c2)CCN1C(=O)[C@@H](Cc1ccc(Cl)cc1Cl)NC(=O)/C=C/c1ccccc1	30
Cc1cc(Cl)ccc1C[C@@H](N)C(=O)N1C[C@@H](C)N(CCc2ccc3ccccc3c2)C[C@@H]1CCCNC(=N)N	23
Cc1ccc(C[C@@H](N)C(=O)N2C[C@@H](C)N(CCc3ccc4ccccc4c3)C[C@@H]2CCCNC(=N)N)c(Cl)c1	37
C[C@@H]1CN(CCc2ccc3ccccc3c2)C[C@H](CCCNC(=N)N)N1C(=O)[C@H](N)Cc1ccc(Cl)cc1Cl [Example 17 (R)-CH3]	14
N=C(N)NCCC[C@H]1CN(CCOc2ccc3ccccc3c2)CCN1C(=O)[C@@H](N)Cc1ccc(Cl)cc1Cl	25
C[C@H]1CN(CCc2ccc3ccccc3c2)C[C@H](CCCNC(=N)N)N1C(=O)[C@H](N)Cc1ccc(Cl)cc1Cl [Example 17 (S)-CH3]	3
C[C@@H]1CN(C(=O)[C@H](N)Cc2ccc(Cl)cc2)[C@@H](CCCNC(=N)N)CN1CCc1ccc2ccccc2c1	85
